Data provenance is PubChem BioAssay (NCI).

Tested on: COLO 205 colon
Test: NCI tumour cell line growth inhibition, 48 h
Overview of reported TGI across a group of compounds:
observation-type: TGI

C=C1C(=O)O[C@H]2[C@H]1CC/C(COC(=O)/C=C/c1c[nH]c3ccccc13)=C\CC[C@@]1(C)O[C@@H]21    0.541 µM
CCCCCCCCC[n+]1cccc(C2C(C(=O)OCC)=C(C)NC(C)=C2C(=O)OCC)c1    8.06 µM
C[n+]1c(-c2ccc(/C=N/Nc3ccnc(N/N=C/c4ccc(-c5cn6ccccc6[n+]5C)cc4)n3)cc2)cn2ccccc21    > 100 µM
COC(=O)/C(=N/O)C(C(=O)OC)C(=O)C(=O)Nc1c(Cl)cc(C)cc1S(=O)(=O)O (centres undefined)    > 100 µM
N#Cc1c(NCc2ccccc2)nc(NCc2ccccc2)c(C#N)c1-c1cccc(O)c1    > 100 µM
COc1cc(CC2CC(c3ccc4c(c3)OCO4)OC2=O)cc(OC)c1OC (centres undefined)    > 100 µM
O=C(Nc1ccc(-c2ccnc(Nc3ccc(N4CCOCC4)cc3)n2)cc1)C1CCCN1 (centres undefined)    20.5 µM
Cc1cccc(O)c(=O)c1    37.8 µM
CCC1OC(/C(C)=C/C(C)/C=C/C2C(C)C2/C=C/C2OC(CC(=O)O)CC(O)C2O)CC=C1C (centres undefined)    > 50 µM
O=C(O)c1cc2c(c3ccsc13)-c1ccccc1CC2    > 100 µM
COc1cc(C(=O)C/C(CCC(=O)Nc2ccc(Cl)cc2Cl)=N/Nc2nnc(C)n2N)ccc1O    > 100 µM
O=C(c1ccccc1)c1ccccc1C(=O)c1ccccc1    > 100 µM
COC(=O)C1=C(C)NC2(C)OC(C)(O)C(C(C)=O)C12C(C)=O (centres undefined)    > 100 µM
CC(=O)O[C@H](C[C@H](C(C)C)N(C)C(=O)[C@@H](NC(=O)[C@H]1CCCCN1C)C(C)(C)C)c1nc(C(=O)N[C@@H](Cc2ccccc2)C[C@H](C)C(=O)O)cs1    0.0053 µM
COc1ccc(C2NC(=O)Nc3c2c(=O)oc2c3ccc3ccccc32)cc1 (centres undefined)    > 100 µM
Cc1nn2c(/C=C3\C(=O)Nc4ccccc43)c(C)nc2s1    63.4 µM
O=C(Nc1ccccc1C(=O)Nc1nccs1)c1ccccc1    > 100 µM
CCOC(=O)N1C(=S)C(C(=O)OC)(C(=O)OC)N=C1C    > 100 µM
Cc1ccc(C)c2c1CCc1cc3ccccc3nc1-2    > 100 µM
Cn1c(=O)c2sc3cc4c(cc3c2c2ccccc21)sc1c(=O)n(C)c2ccccc2c14    > 100 µM
COc1ccc(C2=NNC(=O)c3ccccc3N2c2nc(-c3cccs3)nc3ccc(Br)cc23)cc1    > 100 µM
C=Cc1cnc([N+](=O)[O-])n1C    > 100 µM
COc1cccc2ccc3c(c12)C(=O)OC31CCc2c(C)cccc21 (centres undefined)    > 46.4 µM
CCC1(CC)C(=O)[N-]C(=O)[N-]C1=O.[Au+].[Au+].c1ccc([PH+](c2ccccc2)c2ccccc2)cc1.c1ccc([PH+](c2ccccc2)c2ccccc2)cc1    3.36 µM
COc1cc2c3c(c1OC)Oc1ccc(cc1)CC1c4c(cc(OC)c(OC)c4Oc4ccc(cc4)CC3N(C)CC2)CCN1C (centres undefined)    26.4 µM
COc1ccc(N2C(=O)C(N3C(=O)C=CC3=O)C2C=O)cc1 (centres undefined)    > 100 µM
CC(=O)[C@H]1CCC2[C@@H]3CC=C4C(O)C(OS(=O)(=O)O)CC[C@]4(C)C3CC[C@@]21C (some centres undefined)    > 100 µM
CC(=O)Nc1ccc(/C=C(\NC(=O)c2ccccc2)C(=O)NNS(=O)(=O)c2ccc(C)cc2)cc1    71.2 µM
CC(=O)OCC(OC(C)=O)C(OC(C)=O)C(OC(C)=O)C(=O)CNn1c(-c2ccccc2Cl)nc2ccc(Br)cc2c1=O (centres undefined)    > 100 µM
COc1ccc(NC(=S)NNC(=O)c2cc(-c3ccccc3)nc3ccccc23)cc1    97.4 µM
CCOC(=O)c1cn(C)nc1N/C(C)=C\C(=O)c1ccccc1    > 100 µM
CCOC(=O)C1=C(C)N(c2ccc(C)cc2)C2(O)C=CC(=O)C3=C(O)c4ccccc4C(=O)C312 (centres undefined)    > 100 µM
C[C@@H]1OCC(O)C([C@H]2OC(c3ccccc3)=N[C@H]2CO)O1 (some centres undefined)    > 100 µM
S=C(Nc1ccccc1)N1CCn2c1nsc2=Nc1ccccc1    > 100 µM
